Reported corrected association response values for the following binders.
assayed.system: recombinant human OX40 (Acro Biosystems, cat. no. OXO-H5224) (human) (UniProt P43489)
Sequence (P43489 29-216 limits assumed): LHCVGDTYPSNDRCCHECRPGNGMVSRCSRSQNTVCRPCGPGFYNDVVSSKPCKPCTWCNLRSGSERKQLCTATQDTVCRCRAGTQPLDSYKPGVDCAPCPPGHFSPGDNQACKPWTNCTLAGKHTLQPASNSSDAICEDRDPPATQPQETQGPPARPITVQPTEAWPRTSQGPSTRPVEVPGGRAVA
test.description: BLI cross-block; competitor (immobilized 1st Ab): IgG1-CD134-003-HC6LC2-RR

binder | corrected association response, nm
IgG1-CD134-MEDI0562 (antibody, INN chains, looked up, V domains shown, IgG1) VH: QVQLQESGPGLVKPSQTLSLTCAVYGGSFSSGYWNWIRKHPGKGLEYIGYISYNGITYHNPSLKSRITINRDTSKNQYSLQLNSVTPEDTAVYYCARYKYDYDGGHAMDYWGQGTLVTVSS VL: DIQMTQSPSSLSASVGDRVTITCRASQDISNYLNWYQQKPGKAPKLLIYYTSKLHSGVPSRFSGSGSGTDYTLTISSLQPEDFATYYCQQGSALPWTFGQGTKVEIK | 1.73
IgG1-CD134-RG7888 (antibody, INN chains, looked up, V domains shown, IgG1) VH: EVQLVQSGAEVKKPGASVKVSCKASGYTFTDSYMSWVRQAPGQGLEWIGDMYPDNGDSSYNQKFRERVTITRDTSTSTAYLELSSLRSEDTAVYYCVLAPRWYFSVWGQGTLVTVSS VL: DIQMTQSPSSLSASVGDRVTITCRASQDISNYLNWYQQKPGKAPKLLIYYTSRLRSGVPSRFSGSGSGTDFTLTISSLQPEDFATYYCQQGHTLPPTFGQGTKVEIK | 1.38
IgG1-CD134-ABBV368 (antibody, INN chains, looked up, V domains shown, IgG1) VH: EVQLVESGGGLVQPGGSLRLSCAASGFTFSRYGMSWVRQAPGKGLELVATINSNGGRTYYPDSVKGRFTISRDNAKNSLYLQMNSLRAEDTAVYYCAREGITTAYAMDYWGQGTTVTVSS VL: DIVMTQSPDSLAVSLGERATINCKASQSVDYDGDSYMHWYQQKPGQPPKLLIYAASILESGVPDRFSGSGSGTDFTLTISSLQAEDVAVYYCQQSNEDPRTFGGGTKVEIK | 1.68
IgG1-CD134-GBR830 (antibody, INN chains, looked up, V domains shown, IgG1) VH: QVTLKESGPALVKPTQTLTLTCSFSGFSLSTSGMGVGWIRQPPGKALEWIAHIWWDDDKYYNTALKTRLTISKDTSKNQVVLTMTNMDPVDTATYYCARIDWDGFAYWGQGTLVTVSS VL: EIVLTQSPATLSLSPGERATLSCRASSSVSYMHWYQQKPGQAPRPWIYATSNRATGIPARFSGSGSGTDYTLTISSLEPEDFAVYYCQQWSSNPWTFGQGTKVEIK | 1.08
